# Tested on: A549 NSCLC
# testName: NCI tumour cell line growth inhibition, 48 h; in the data active = GI50 below about 0.43 µM; inactive = the rest
Outcome codes: 1 (yes) = active, 0 (no) = inactive

Cc1cc(OCc2n[nH]c(=S)n2/N=C/c2ccc(F)cc2)ccc1Cl : 0 (no)
COc1cc(Nc2cc(C)nc(N3CCN(c4ccnc5cc(Cl)ccc45)CC3)n2)cc(OC)c1 : 1 (yes)
Cn1nc(-c2cccs2)cc1/N=C(\N)C(C)(C#N)Cc1ccccc1 (stereo not drawn) : 0 (no)

----------
As shown below, each of these compounds has a reported TGI value.
# Test system: EKVX NSCLC
# testName: NCI tumour cell line growth inhibition, 48 h
propertyName: TGI

O=C1CCCn2c(nc3ccccc32)N1 : > 100 µM
N#CCCC1(CCC#N)CCc2ccccc2C1=O : > 100 µM
COc1ccc2c(c1)CC1Cc3cc(OC)c(OC)cc3CN1CC2 (stereo not drawn) : > 100 µM
COc1cc2c(cc1OC)C1C(O)C(OC)C(Br)C3(Br)CCN(C2)C13 (stereo not drawn) : > 100 µM
COC(=O)c1c2c(c[n+]([O-])c1C)C(=O)C=C(NCc1ccccc1)C2=O : 0.507 µM
Cc1ccc2nc(C=Nc3ccccc3Cl)cc(C)c2c1 : > 100 µM
COc1ccccc1N1C(=O)C2C3c4ccccc4C(OC(C)=O)(c4ccccc43)C2C1=O (stereo not drawn) : > 100 µM
CC1CC(c2ccc(Cl)cc2)=Nc2ccccc2S1 (stereo not drawn) : > 100 µM
CCOC1CN(C)C(=Nc2cccc3ccccc23)S1 (stereo not drawn) : > 10 µM
O=C1C=CC(=O)c2c(O)c(CO)c(CO)c(O)c21 : 5.03 µM
c1ccc(N=C2SC(c3ccccc3)(c3ccccc3)c3ccccc32)cc1 : > 100 µM
O=C1c2ccccc2C(=O)N1C/C=N/NS(=O)(=O)c1ccc2ccccc2c1 : > 100 µM
CON(C)C(=O)CCCO : > 100 µM
Cc1ccccc1N=Nc1cc(C)c(N=Nc2c(O)ccc3ccccc23)cc1C : > 100 µM
C=CCNC(=O)/C=C\C(=O)O : > 100 µM
COc1cc(OC)cc(Oc2nc3cc(N)cc(N)c3nc2-c2ccccc2)c1 : 19.3 µM
CC(NC(=O)C(CC(=O)OCc1ccccc1)NC(=O)OCc1ccccc1)c1ccccc1 (stereo not drawn) : > 100 µM
COc1nc(NC2OC(COC(C)=O)C(OC(C)=O)C(OC(C)=O)C2OC(C)=O)c(N=CC=Nc2c(NC3OC(COC(C)=O)C(OC(C)=O)C(OC(C)=O)C3OC(C)=O)nc(OC)n(C)c2=O)c(=O)n1C (stereo not drawn) : > 100 µM
O=C1C[C@H](Sc2ccccc2)C2(OCCO2)[C@H]2ON3CCC[C@@H]3[C@@H]12 : 9.64 µM
CCNC(=S)NNC(=O)c1nsc2ccccc12 : > 100 µM
COC(=O)C1=C(C)N2CCOC2(C)C(C(=O)OC)C1c1ccc[nH]1 (stereo not drawn) : > 100 µM
C[C@]12CC(c3ccccc3O1)C(C(N)=O)C(=O)N2 (stereo partly drawn) : > 100 µM
Nc1nc[n+](Cc2ccccc2CCO)c2nc[nH]c12 : > 100 µM

----------
# Test system: OVCAR-3 ovarian
# testName: NCI tumour cell line growth inhibition, 48 h
propertyName: TGI

COc1cc(C(=O)/C=C/c2c(-c3cccs3)nc3sc(C)cn23)cc(OC)c1OC : 18.7 µM
CCOC(=O)c1cc(NC(=O)c2cc(NC(=O)c3cc(NC(=O)c4c(-c5ccccc5)noc4C)cn3C)cn2C)cn1C : > 100 µM
CC(=O)Nc1cc(C(=O)Nc2cc(C(=O)Nc3cc(C(=O)Nc4cc(C(=O)Nc5cc(C(=O)NCCC(=O)NCCCN(C)C)n(C)c5)n(C)c4)n(C)c3)n(C)c2)n(C)c1 : > 100 µM
Cc1ccc(N(C)S(=O)(=O)c2ccc([N+](=O)[O-])cc2)cc1 : > 100 µM
COc1ccc2c(c1)CC1Cc3cc(OC)c(OC)cc3CN1CC2 (stereo not given) : > 100 µM
